# condition-set: 298.15 K; 101 kPa; Liquid mixture 1; Drop volume
result-type: interfacial tension (mN/m)

{"molecule": "CCCCO [butan-1-ol] + O", "unit-abbrev": "mN/m", "interfacial tension": 1.68}
{"molecule": "CC(C)OC(C)C [diisopropyl ether] + O", "unit-abbrev": "mN/m", "interfacial tension": 17.7}
{"molecule": "CCCCCCCCO [octan-1-ol] + O", "unit-abbrev": "mN/m", "interfacial tension": 7.97}
{"molecule": "CCCCCCCO [heptan-1-ol] + O", "unit-abbrev": "mN/m", "interfacial tension": 7.4}
{"molecule": "C1CCOCC1 [tetrahydropyran] + O", "unit-abbrev": "mN/m", "interfacial tension": 5.78}

(a) CCCCCO [pentan-1-ol] + O
(b) CCOC(C)(C)C [2-ethoxy-2-methylpropane] + O
query: Looking at recorded values for interfacial tension, does a or b come in lower? Return value: the label identifying the chosen record.
result: a

----------
# test-summary: refractive index (Na D-line) (dimensionless)
# condition-set: 298.15 K; 101.33 kPa; Liquid; Standard Abbe refractometry
result-type: refractive index

{"compound": "CC(C)OC(C)C", "value-measured": 1.3665}
{"compound": "CCCCCO", "value-measured": 1.40941}
{"compound": "C1CCOCC1 [tetrahydropyran]", "value-measured": 1.42004}
{"compound": "O", "value-measured": 1.33374}
{"compound": "CCC(C)(C)OC", "value-measured": 1.38736}
{"compound": "CCCCCCCO", "value-measured": 1.42384}
{"compound": "CCOC(C)(C)C", "value-measured": 1.37468}
{"compound": "COC(C)(C)C", "value-measured": 1.36764}
{"compound": "CCCCCCCCO", "value-measured": 1.42884}

----------
# condition-set: 298.15 K, Maximal bubble pressure
result-type: surface tension liquid-gas (mN/m)

{"compound": "CCCCCCCCO", "result-type": "surface tension liquid-gas", "value-measured": 28}

(P) CCOC(C)(C)C
(Q) O
query: Looking at recorded values for surface tension liquid-gas, does P or Q come in lower? Return value: the label identifying the chosen record.
result: P
(P: 19.73 mN/m, Q: 71.94 mN/m)

----------
# condition-set: 308.15 K; 101 kPa; Liquid mixture 1; Drop volume
result-type: interfacial tension (mN/m)

For orientation, consider the following solved cases.
{"molecule": "CCCCCCCO [heptan-1-ol] + O", "value-measured": 7.56}
{"molecule": "C1CCOCC1 [tetrahydropyran] + O", "value-measured": 6.35}
{"molecule": "CCOC(C)(C)C [2-ethoxy-2-methylpropane] + O", "value-measured": 17.8}
{"molecule": "CCC(C)(C)OC [2-methoxy-2-methylbutane] + O", "value-measured": 15.5}

(P) CC(C)OC(C)C [diisopropyl ether] + O
(Q) CCCCCCCCO [octan-1-ol] + O
query: Looking at recorded values for interfacial tension, does P or Q come in lower? Return value: the label identifying the chosen record.
result: Q
(Q: 8.41 mN/m, P: 18.7 mN/m)

----------
# condition-set: 318.15 K; 101 kPa; Liquid mixture 1; Drop volume
result-type: interfacial tension (mN/m)

{"molecule": "CCC(C)(C)OC [2-methoxy-2-methylbutane] + O", "value-measured": 16.3}

(a) COC(C)(C)C [2-methoxy-2-methylpropane] + O
(b) CCCCCCCO [heptan-1-ol] + O
(c) CCCCO [butan-1-ol] + O
query: Rank the items in ascending order with respect to interfacial tension. Order the labels as requested and give them as your answer.
result: c, b, a
(c: 1.63 mN/m, b: 7.73 mN/m, a: 11.7 mN/m)

(a) C1CCOCC1 [tetrahydropyran] + O
(b) CCOC(C)(C)C [2-ethoxy-2-methylpropane] + O
query: Exercise: compare a and b ; which one has the greater interfacial tension? Return value: the label identifying the chosen record.
result: b
(b: 18.7 mN/m, a: 6.75 mN/m)

----------
# condition-set: 288.15 K; 101 kPa; Liquid mixture 1; Drop volume
result-type: interfacial tension (mN/m)

For orientation, consider the following solved cases.
{"molecule": "COC(C)(C)C [2-methoxy-2-methylpropane] + O", "interfacial tension [mN/m]": 8.83}
{"molecule": "CC(C)OC(C)C [diisopropyl ether] + O", "interfacial tension [mN/m]": 16.3}

(a) C1CCOCC1 [tetrahydropyran] + O
(b) CCOC(C)(C)C [2-ethoxy-2-methylpropane] + O
query: Exercise: compare a and b ; which one has the greater interfacial tension? Return value: the label identifying the chosen record.
result: b
(b: 15.5 mN/m, a: 5.19 mN/m)

----------
# condition-set: 298.15 K; 101 kPa; Liquid mixture 1; Drop volume
result-type: interfacial tension (mN/m)

{"compound": "CCCCCCO [hexan-1-ol] + O", "result-type": "interfacial tension", "unit-abbrev": "mN/m", "value-measured": 6.29}

(A) COC(C)(C)C [2-methoxy-2-methylpropane] + O
(B) CCC(C)(C)OC [2-methoxy-2-methylbutane] + O
query: Looking at recorded values for interfacial tension, does A or B come in lower? Return value: the label identifying the chosen record.
result: A
(A: 9.8 mN/m, B: 14.5 mN/m)

----------
# condition-set: 298.15 K, Maximal bubble pressure
result-type: surface tension liquid-gas (mN/m)

{"compound": "COC(C)(C)C", "surface tension liquid-gas (mN/m)": 17.5}
{"compound": "CCCCCO", "surface tension liquid-gas (mN/m)": 24.7}
{"compound": "CCCCCCCO", "surface tension liquid-gas (mN/m)": 27.4}
{"compound": "C1CCOCC1 [tetrahydropyran]", "surface tension liquid-gas (mN/m)": 28}
{"compound": "CC(C)OC(C)C", "surface tension liquid-gas (mN/m)": 16.9}
{"compound": "CCC(C)(C)OC", "surface tension liquid-gas (mN/m)": 20.3}

----------
# condition-set: 318.15 K; 101 kPa; Liquid mixture 1; Drop volume
result-type: interfacial tension (mN/m)

For orientation, consider the following solved cases.
{"compound": "CC(C)OC(C)C [diisopropyl ether] + O", "unit-abbrev": "mN/m", "value-measured": 19.7}
{"compound": "CCCCCCO [hexan-1-ol] + O", "unit-abbrev": "mN/m", "value-measured": 6.18}

(A) CCCCCCCCO [octan-1-ol] + O
(B) CCCCCO [pentan-1-ol] + O
query: Looking at recorded values for interfacial tension, does A or B come in lower? Return value: the label identifying the chosen record.
result: B
